Here the recorded Activity is given for each entry.
- assay system: Homeobox protein Meis1 (Homo sapiens)
- assay method text: Inhibition of MEIS1 (unknown origin) expressed in HEK293T cells co-expressing MEIS-Luc-pGL2 assessed as luciferase activity at 10 uM incubated for 48 hrs by luciferase reporter assay related to protein content
- Format: cell-based
- Parameters: scale not given: the % may be the effect or the level left

- record smiles: "COc1ccc(CNC(=O)COc2ccc(C(=O)Nc3cccc(C)c3C)cc2)c(OC)c1"
  units of measure: "%"
  Activity: 50
- record smiles: "CCc1cccc(NC(=O)c2ccc(OCC(=O)NCc3ccc(Cl)cc3)cc2)c1"
  units of measure: "%"
  Activity: 69
- record smiles: "CCc1ccccc1NC(=O)c1ccc(OCC(=O)NCc2ccc(Cl)cc2)cc1"
  units of measure: "%"
  Activity: 51
- record smiles: "Cc1cccc(NC(=O)c2ccc(OCC(=O)NCc3ccc(C(F)(F)F)cc3)cc2)c1C"
  units of measure: "%"
  Activity: 26
- record smiles: "O=C(COc1ccc(C(=O)Nc2ccc(F)cc2)cc1)NCc1ccc(Cl)cc1"
  units of measure: "%"
  Activity: 69

###

Here the recorded Activity is given for each entry.
- assay system: Homeobox protein Meis1 (Homo sapiens) (UniProt O00470)
- Sequence (whole entry): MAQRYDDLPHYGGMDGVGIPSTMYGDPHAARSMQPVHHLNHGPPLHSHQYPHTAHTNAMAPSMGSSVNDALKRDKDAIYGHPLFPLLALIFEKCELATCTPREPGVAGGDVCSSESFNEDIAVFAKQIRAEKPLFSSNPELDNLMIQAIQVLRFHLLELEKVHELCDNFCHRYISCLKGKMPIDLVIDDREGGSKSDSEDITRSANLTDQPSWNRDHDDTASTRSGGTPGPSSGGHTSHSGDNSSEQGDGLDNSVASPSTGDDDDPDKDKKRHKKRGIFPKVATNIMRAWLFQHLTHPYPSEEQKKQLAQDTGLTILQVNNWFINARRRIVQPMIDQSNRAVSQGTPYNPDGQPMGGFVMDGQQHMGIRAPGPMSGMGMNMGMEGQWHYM
- assay method text: Inhibition of MEIS1 (unknown origin) expressed in HEK293T cells co-expressing MEIS-Luc-pGL2 assessed as downregulation of Meis1 gene expression measuring mRNA level at 10 uM incubated for 2 days by RT-qPCR analysis
- Assay type: cell-based
- Set-up: scale not given: the % may be the effect or the level left
- recorded conditions: time 2.0 day

- record smiles: "CCc1ccccc1NC(=O)c1ccc(OCC(=O)NCc2ccc(OC)cc2)cc1"
  units of measure: "%"
  Activity: 8.3
- record smiles: "Cc1cccc(NC(=O)c2ccc(OCC(=O)NCc3ccccc3Cl)cc2)c1C"
  units of measure: "%"
  Activity: 13.7
- record smiles: "COc1ccc(CNC(=O)COc2ccc(C(=O)Nc3cccc(C(F)(F)F)c3)cc2)cc1"
  units of measure: "%"
  Activity: 15.1

###

- assay system: Homeobox protein Meis1 (Homo sapiens) (UniProt O00470)
- Sequence (whole entry): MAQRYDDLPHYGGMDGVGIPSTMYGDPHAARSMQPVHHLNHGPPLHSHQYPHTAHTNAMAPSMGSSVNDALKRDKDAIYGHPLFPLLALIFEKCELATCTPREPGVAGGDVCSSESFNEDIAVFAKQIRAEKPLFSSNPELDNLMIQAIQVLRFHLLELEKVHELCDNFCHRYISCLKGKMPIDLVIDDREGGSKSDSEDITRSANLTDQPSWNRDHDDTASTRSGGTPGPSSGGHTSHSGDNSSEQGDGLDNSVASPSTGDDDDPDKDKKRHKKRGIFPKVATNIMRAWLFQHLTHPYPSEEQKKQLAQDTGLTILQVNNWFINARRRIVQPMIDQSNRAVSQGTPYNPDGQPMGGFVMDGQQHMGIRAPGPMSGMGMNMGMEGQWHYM
- assay method text: Inhibition of MEIS1 (unknown origin) expressed in HEK293T cells co-expressing MEIS-Luc-pGL2 assessed as downregulation of p21 gene expression by measuring mRNA level at 10 uM incubated for 2 days by RT-qPCR analysis
- Type: cell-based
- Parameters: scale not given: the % may be the effect or the level left
- recorded conditions: time 2.0 day
Here the recorded Activity is given for each entry.
experimental readout: Activity (%)

- record smiles: "COc1ccc(CNC(=O)COc2ccc(C(=O)Nc3cccc(C)c3C)cc2)cc1"
  numeric value: 15.7
- record smiles: "Cc1cccc(NC(=O)c2ccc(OCC(=O)NCc3ccc(F)cc3)cc2)c1C"
  numeric value: 25.6
- record smiles: "CCc1ccccc1NC(=O)c1ccc(OCC(=O)NCc2ccc(Cl)cc2)cc1"
  numeric value: 139
- record smiles: "COc1ccc(CNC(=O)COc2ccc(C(=O)Nc3ccc(F)cc3)cc2)cc1"
  numeric value: 20.3
- record smiles: "Cc1cccc(NC(=O)c2ccc(OCC(=O)NCc3ccccc3Cl)cc2)c1C"
  numeric value: 25.3
- record smiles: "COc1ccc(CNC(=O)COc2ccc(C(=O)Nc3cccc(C)c3C)cc2)cc1OC"
  numeric value: 21.7
- record smiles: "O=C(COc1ccc(C(=O)Nc2cccc(Cl)c2)cc1)NCc1ccc(Cl)cc1"
  numeric value: 19.7
- record smiles: "CCc1ccccc1NC(=O)c1ccc(OCC(=O)NCc2ccc(OC)cc2)cc1"
  numeric value: 8.5

###

- assay system: Homeobox protein Meis1 (Homo sapiens) (UniProt O00470)
- assay method text: Inhibition of MEIS1 (unknown origin) expressed in HEK293T cells co-expressing MEIS-Luc-pGL2 assessed as downregulation of Meis1 gene expression measuring mRNA level at 10 uM incubated for 2 days by RT-qPCR analysis
- Type: cell-based
- Parameters: scale not given: the % may be the effect or the level left
- recorded conditions: time 2.0 day

- record smiles: "Cc1cccc(NC(=O)c2ccc(OCC(=O)NCc3ccc(Cl)cc3)cc2)c1C"
  units of measure: "%"
  Activity: 35.9
- record smiles: "O=C(COc1ccc(C(=O)Nc2cccc(Cl)c2)cc1)NCc1ccc(Cl)cc1"
  units of measure: "%"
  Activity: 4.5
- record smiles: "COc1ccc(CNC(=O)COc2ccc(C(=O)Nc3ccc(F)cc3)cc2)cc1"
  units of measure: "%"
  Activity: 7.5
- record smiles: "Cc1cccc(NC(=O)c2ccc(OCC(=O)NCc3ccc(F)cc3)cc2)c1C"
  units of measure: "%"
  Activity: 24.3
- record smiles: "COc1ccc(CNC(=O)COc2ccc(C(=O)Nc3cccc(C)c3C)cc2)cc1OC"
  units of measure: "%"
  Activity: 9.5
- record smiles: "COc1ccc(CNC(=O)COc2ccc(C(=O)Nc3cc(C(F)(F)F)ccc3F)cc2)cc1"
  units of measure: "%"
  Activity: 6.6
- record smiles: "Cc1cccc(NC(=O)c2ccc(OCC(=O)NCc3ccccc3)cc2)c1C"
  units of measure: "%"
  Activity: 12
- record smiles: "COc1ccc(CNC(=O)COc2ccc(C(=O)Nc3cccc(C)c3C)cc2)cc1"
  units of measure: "%"
  Activity: 14.3
- record smiles: "CCc1ccccc1NC(=O)c1ccc(OCC(=O)NCc2ccc(Cl)cc2)cc1"
  units of measure: "%"
  Activity: 19.2
- record smiles: "COc1ccc(CNC(=O)COc2ccc(C(=O)Nc3cccc(Cl)c3)cc2)cc1"
  units of measure: "%"
  Activity: 5.9

###

- assay system: Homeobox protein Meis1 (Homo sapiens) (UniProt O00470)
- assay method text: Inhibition of MEIS1 (unknown origin) expressed in HEK293T cells co-expressing MEIS-Luc-pGL2 assessed as luciferase activity at 10 uM incubated for 48 hrs by luciferase reporter assay related to […] control
- Assay type: cell-based
- Parameters: scale not given: the % may be the effect or the level left
Here the recorded Activity is given for each entry.

- record smiles: "COc1ccc(CNC(=O)COc2ccc(C(=O)Nc3cc(C(F)(F)F)ccc3F)cc2)cc1"
  Activity, %: 30
- record smiles: "COc1ccc(CNC(=O)COc2ccc(C(=O)Nc3cccc(C)c3C)cc2)c(OC)c1"
  Activity, %: 17
- record smiles: "CCc1ccccc1NC(=O)c1ccc(OCC(=O)NCc2ccccc2Cl)cc1"
  Activity, %: 66
- record smiles: "O=C(COc1ccc(C(=O)Nc2ccccc2F)cc1)NCc1ccccc1Cl"
  Activity, %: 62
- record smiles: "COc1ccc(CNC(=O)COc2ccc(C(=O)Nc3ccc(Oc4ccc(Br)cc4)cc3)cc2)cc1"
  Activity, %: 45
- record smiles: "COc1ccc(CNC(=O)COc2ccc(C(=O)Nc3cccc(C)c3C)cc2)cc1"
  Activity, %: 48
- record smiles: "Cc1cccc(C)c1NC(=O)c1ccc(OCC(=O)NCc2ccc(Cl)cc2)cc1"
  Activity, %: 55
- record smiles: "COc1ccc(CNC(=O)COc2ccc(C(=O)Nc3ccccc3)cc2)cc1"
  Activity, %: 43
- record smiles: "Cc1cccc(NC(=O)c2ccc(OCC(=O)NCc3ccc(Cl)c(Cl)c3)cc2)c1C"
  Activity, %: 47
- record smiles: "COc1ccc(NC(=O)c2ccc(OCC(=O)NCc3ccc(Cl)cc3)cc2)cc1OC"
  Activity, %: 45
- record smiles: "COc1ccc(CNC(=O)COc2ccc(C(=O)Nc3ccc(F)cc3)cc2)cc1"
  Activity, %: 31
- record smiles: "Cc1ccc(CNC(=O)COc2ccc(C(=O)Nc3cccc(C)c3C)cc2)cc1"
  Activity, %: 51
- record smiles: "COc1ccc(NC(=O)c2ccc(OCC(=O)NCc3ccccc3Cl)cc2)cc1OC"
  Activity, %: 82
- record smiles: "O=C(COc1ccc(C(=O)Nc2ccccc2)cc1)NCc1ccccc1Cl"
  Activity, %: 48
- record smiles: "O=C(COc1ccc(C(=O)Nc2cccc(Cl)c2)cc1)NCc1ccc(Cl)cc1"
  Activity, %: 32
- record smiles: "O=C(COc1ccc(C(=O)Nc2ccc(Oc3ccc(Br)cc3)cc2)cc1)NCc1ccccc1Cl"
  Activity, %: 82
- record smiles: "Cc1cccc(NC(=O)c2ccc(OCC(=O)NCc3ccccc3)cc2)c1C"
  Activity, %: 69
- record smiles: "O=C(COc1ccc(C(=O)Nc2ccccc2F)cc1)NCc1ccc(Cl)cc1"
  Activity, %: 40
- record smiles: "O=C(COc1ccc(C(=O)Nc2cccc(Cl)c2)cc1)NCc1ccccc1Cl"
  Activity, %: 96
- record smiles: "Cc1cccc(NC(=O)c2ccc(OCC(=O)NCc3ccc4c(c3)OCO4)cc2)c1C"
  Activity, %: 54
- record smiles: "Cc1cccc(NC(=O)c2ccc(OCC(=O)NCc3ccc(Cl)cc3Cl)cc2)c1C"
  Activity, %: 61
